# Test system: COLO 205 colon
# experiment.notes: NCI-60 one-dose screen, 48 h (100 = growth as untreated, 0 = no growth, -100 = all killed)
# experimental.conditions: 10 µM
The panel holds about 83,000 compounds, 20% with a hit somewhere; the sample as a whole holds those more often.
Entries and their growth values follow.

{"molecule": "CCOc1ccc2c(c1)CC[C@@H]1[C@@H]2CC[C@]2(C)[C@@H](O)[C@@H](O)C[C@@H]12", "growth [%]": 112}
{"molecule": "CN(C)c1ccc2cc(-c3cc4c(oc3=O)-c3ccccc3OC4O)c(=O)oc2c1 (configuration not stated)", "growth [%]": -56.2}
{"molecule": "CC(C)/C(=N/O)c1ccccc1", "growth [%]": 115}
{"molecule": "O=C(Nc1cccc(-c2nc3ccccc3[nH]2)c1)c1cccc(NC(=O)c2ccco2)c1", "growth [%]": 31.4}
{"molecule": "CCCCNC(=O)Oc1ccc(/C(=C(\\C)c2ccc(OC)cc2)c2ccc(OCCN3CCCCC3)cc2)cc1", "growth [%]": -7.56}
{"molecule": "COc1ccc(C(=O)/C=C/c2cc(-c3ccc(OC)c(OC)c3)n[nH]2)cc1OC", "growth [%]": -60.7}
{"molecule": "O=C1CC[C@@H](C(=O)N[C@H]2CSSC[C@@H](C(=O)N/C=C/c3ccc(O)cc3)NC(=O)[C@H](Cc3ccccc3)NC(=O)[C@@H]3CCCN3C(=O)[C@@H]3CCCN3C2=O)N1", "growth [%]": 102}
{"molecule": "COc1ccc(/C=C2\\SC(=S)N(CCCN3CCOCC3)C2=O)c(OC)c1", "growth [%]": 108}
{"molecule": "CCCCC(=O)N(c1ccc(Nc2c3ccccc3nc3cc([N+](=O)[O-])ccc23)cc1)S(C)(=O)=O", "growth [%]": 88.1}
{"molecule": "Cc1ccc(C(=O)O)c(N)c1C", "growth [%]": 117}
{"molecule": "COC(=O)CCCCCCCCC(C)c1ccc(C(C)=O)cc1 (configuration not stated)", "growth [%]": 114}
{"molecule": "COC(=O)C1(C(=O)OC)C2C(=O)C3C(C21)C3(C(=O)OC(C)(C)C)C(=O)OC(C)(C)C (configuration not stated)", "growth [%]": 115}
{"molecule": "CN1/C(=C\\C(I)C(I)C2=[N+](C)c3ccccc3C2(C)C)C(C)(C)c2ccccc21 (configuration not stated)", "growth [%]": -20.6}
{"molecule": "CCOc1cc(Br)c(C(C)NC(=O)c2cccc(OC)c2)cc1OCC (configuration not stated)", "growth [%]": 23.8}
{"molecule": "COc1ccc(-c2nnc(SC/C(=N\\O)c3ccccc3)o2)cc1", "growth [%]": 110}
{"molecule": "O=C(Nc1cccc(Cl)c1)OCC(COC(=O)Nc1cccc(Cl)c1)(COC(=O)Nc1cccc(Cl)c1)[N+](=O)[O-]", "growth [%]": 35.5}
{"molecule": "CCCc1c(CC)c(=N)c2ccccc2n1C", "growth [%]": -18.5}

* * *

# Test system: SK-OV-3 ovarian
# experiment.notes: NCI-60 one-dose screen, 48 h
# experimental.conditions: 10 µM
About 83,000 compounds went through this panel and 20% of them were active in at least one assay; those are over-represented in the sample as a whole. Calls of active or inactive are those of the source. How the source made its calls: active means growth percent below 10; inactive means the rest.
Outcomes: t = active, f = inactive

{"compound": "COCCOC(=O)NC(=O)Nc1ccc(/C(=N/O)c2ccc(Cl)cc2)cc1", "assayed.target": "SK-OV-3 ovarian", "label.value": "t"}
{"compound": "CC(=O)Oc1ccc(C2=Cc3ccc(OC(C)=O)cc3OC2C)cc1 (centres undefined)", "assayed.target": "SK-OV-3 ovarian", "label.value": "f"}
{"compound": "COc1ccc(C2C=C(c3ccc(Cl)c(Cl)c3)N=C3SC(C)=CN32)cc1OC (centres undefined)", "assayed.target": "SK-OV-3 ovarian", "label.value": "f"}
{"compound": "COc1ccc(N2CCN(c3nc(-c4ccccc4)c(C#N)c(=O)[nH]3)CC2)cc1", "assayed.target": "SK-OV-3 ovarian", "label.value": "f"}
{"compound": "Cc1[nH]nc2c(=S)[nH]c(=O)[nH]c12", "assayed.target": "SK-OV-3 ovarian", "label.value": "f"}
{"compound": "COC(=O)c1ccc(Cn2ccc(=O)[nH]c2=O)cc1", "assayed.target": "SK-OV-3 ovarian", "label.value": "f"}
{"compound": "Cc1ccc(C)c(S(=O)(=O)NC2c3ccccc3Oc3ccccc32)c1", "assayed.target": "SK-OV-3 ovarian", "label.value": "f"}
{"compound": "CN1CCN(c2nc(-c3cccnc3)nc3sc4c(c23)CCCCCC4)CC1", "assayed.target": "SK-OV-3 ovarian", "label.value": "f"}
{"compound": "C=CCn1ccc(=O)nc1SC", "assayed.target": "SK-OV-3 ovarian", "label.value": "f"}
{"compound": "Cc1ncc([N+](=O)[O-])n1CCOc1ccc(C(=O)/C=C/c2ccc(C(F)(F)F)cc2)cc1", "assayed.target": "SK-OV-3 ovarian", "label.value": "f"}
{"compound": "COc1cc(/C=C/C(=O)c2cc(-c3ccccc3)ccc2O)cc(OC)c1OC", "assayed.target": "SK-OV-3 ovarian", "label.value": "f"}
{"compound": "CCCCc1ccc(NC(=O)N(CCCl)N=O)cc1", "assayed.target": "SK-OV-3 ovarian", "label.value": "f"}
{"compound": "COc1ccccc1CNCCCN1C(=O)c2ccc3c4c(ccc(c24)C1=O)C(=O)N(CCCNCCNCCCN)C3=O", "assayed.target": "SK-OV-3 ovarian", "label.value": "f"}
{"compound": "CCOC(=O)Nc1ccc2c(c1)C(=O)N(CC)c1ccccc1O2", "assayed.target": "SK-OV-3 ovarian", "label.value": "f"}
{"compound": "Cc1ccc(/C=C2\\CN(Cc3cn(CCNc4ccnc5cc(Cl)ccc45)nn3)C/C(=C\\c3ccc(C)cc3)C2=O)cc1", "assayed.target": "SK-OV-3 ovarian", "label.value": "t"}
{"compound": "CCc1cc2n(n1)-c1ncc(C(=O)OC)cc1Oc1ccccc1-2", "assayed.target": "SK-OV-3 ovarian", "label.value": "f"}
{"compound": "CC(=O)Nc1nc(C)c(C(=O)NNC=O)s1", "assayed.target": "SK-OV-3 ovarian", "label.value": "f"}
{"compound": "CCOC(=O)CSC(=S)SCC(=O)OCC", "assayed.target": "SK-OV-3 ovarian", "label.value": "f"}
{"compound": "CCc1ccc(Nc2cc(C)nc3nc(C)nn23)cc1", "assayed.target": "SK-OV-3 ovarian", "label.value": "f"}
{"compound": "Clc1ccc(-c2nc(-c3cccs3)cn3ccnc23)cc1", "assayed.target": "SK-OV-3 ovarian", "label.value": "f"}
{"compound": "CCCCCCCCCCCC(c1ccccc1)N(C)C (centres undefined)", "assayed.target": "SK-OV-3 ovarian", "label.value": "f"}
{"compound": "CCN(CC)CC(O)CNc1ccnc2cc(Cl)c(Cl)cc12 (centres undefined)", "assayed.target": "SK-OV-3 ovarian", "label.value": "f"}
{"compound": "Cc1cc(Nc2cccc(F)c2)nc(NCc2ccccc2)n1", "assayed.target": "SK-OV-3 ovarian", "label.value": "f"}
{"compound": "O=C(Nc1cccc(F)c1)Nc1cccc(Cl)c1", "assayed.target": "SK-OV-3 ovarian", "label.value": "f"}
{"compound": "COc1cc2nc(Sc3sc(N)nc3C)n(-c3ccc(Oc4ccccc4)cc3)c(=O)c2cc1OC", "assayed.target": "SK-OV-3 ovarian", "label.value": "f"}
{"compound": "CC(C)c1[nH]nc2c(NCc3ccc(-c4ccccn4)cc3)nc(SCCN(C)C)nc12", "assayed.target": "SK-OV-3 ovarian", "label.value": "t"}
{"compound": "NCCNc1ccc2cc(-c3nc4ccccc4[nH]3)c(=O)oc2c1", "assayed.target": "SK-OV-3 ovarian", "label.value": "f"}
{"compound": "O=c1c2cccc3c(Nc4ccc(Br)cn4)ccc(c32)c2nc3ccccc3n12", "assayed.target": "SK-OV-3 ovarian", "label.value": "f"}
{"compound": "Nc1nc2c(nnn2C2CC(O)C(CO)O2)c(=O)[nH]1 (centres undefined)", "assayed.target": "SK-OV-3 ovarian", "label.value": "f"}
{"compound": "CC(=O)OC1Oc2ccccc2-c2oc(=O)c(-c3cc(=O)oc4cc(O)ccc34)cc21 (centres undefined)", "assayed.target": "SK-OV-3 ovarian", "label.value": "f"}
{"compound": "CC(C)c1[nH]nc2c(NCc3ccc(-c4ccccn4)cc3)nc(SCCN)nc12", "assayed.target": "SK-OV-3 ovarian", "label.value": "t"}
{"compound": "Nc1ccc2c(c1)Cc1cc(N)c(Cl)cc1-2", "assayed.target": "SK-OV-3 ovarian", "label.value": "f"}
{"compound": "O=C1/C(=C/c2ccc(O)cc2)Cc2ccc(Cl)cc21", "assayed.target": "SK-OV-3 ovarian", "label.value": "f"}
{"compound": "CNC(=O)c1cc(Oc2ccc(NC(=O)Nc3ccc(Cl)c(C(C)(C)C)c3)c(F)c2)ccn1", "assayed.target": "SK-OV-3 ovarian", "label.value": "f"}
